# System: L1210 leukemia ip in BDF1 mice, survival T/C
# procedure text: NCI In Vivo Anticancer Drug Screen. Data for tumor model L1210 Leukemia (intraperitoneal) in B6D2F1 (BDF1) mice
# stated conditions: endpoint: mean survival time; dose: 100.0 mg/kg/injection; schedule: Q01DX009 (ip); vehicle: saline with Tween-80; higher = longer survival
Toxic doses and inconclusive results are not listed.
Measured T/C, listed per entry.

See these solved cases before continuing.
Incoming: What T/C value was documented for this molecule, CSCCC(C#N)(CCN(C)C)c1ccccc1 (stereo unspecified) ?
Outgoing: 97 % of control

Incoming: What T/C value was documented for this molecule, COc1ccc(C)cc1NC(=O)NNC(=O)c1ccc(Cl)cc1 ?
Outgoing: 98 % of control

Further cases:
Incoming: What T/C value was documented for this molecule, NC(=O)CC(NC(=O)OCc1ccccc1)C(=O)OCc1ccccc1 (stereo unspecified) ?
Outgoing: 106 % of control

Incoming: What T/C value was documented for this molecule, Cc1cccc(C)c1NC(=O)OCCSc1ccc(Cl)cc1 ?
Outgoing: 96 % of control

Incoming: What T/C value was documented for this molecule, CC(=O)CC(=O)Nc1ccc([N+](=O)[O-])cc1 ?
Outgoing: 97 % of control

Incoming: What T/C value was documented for this molecule, Nc1ccc2c(=O)[nH][nH]c(=O)c2c1 ?
Outgoing: 98 % of control

Incoming: What T/C value was documented for this molecule, O=C(NO)Nc1ccccc1 ?
Outgoing: 98 % of control

Incoming: What T/C value was documented for this molecule, COc1ccc(OC)c(NC(=O)Nc2ccc(Cl)cc2[N+](=O)[O-])c1 ?
Outgoing: 91 % of control

Incoming: What T/C value was documented for this molecule, O=c1[nH]c2ccc(I)cc2c(=O)o1 ?
Outgoing: 100 % of control

Incoming: What T/C value was documented for this molecule, Cc1ccc(COC(=O)Nc2ccc(C)c(NC(=O)OCc3ccc(C)cc3)c2)cc1 ?
Outgoing: 90 % of control

----------
# Tested on: L1210 leukemia ip in BDF1 mice, survival T/C
# procedure text: NCI In Vivo Anticancer Drug Screen. Data for tumor model L1210 Leukemia (intraperitoneal) in B6D2F1 (BDF1) mice
# stated conditions: endpoint: mean survival time; dose: 200.0 mg/kg/injection; schedule: Q04DX003 (ip); vehicle: Klucel (hydroxypropylcellulose) (HPC); higher = longer survival
Inconclusive results and toxic doses are left out.
assay metric: T/C

Incoming: Item CC/C(=C\c1cccc([N+](=O)[O-])c1)C(=O)O with L1210 leukemia ip in BDF1 mice, survival T/C - T/C?
Outgoing: 95 % of control

Incoming: Item Oc1c(Br)cc(C(c2cc(Br)c(O)c(Br)c2)c2ccccn2)cc1Br with L1210 leukemia ip in BDF1 mice, survival T/C - T/C?
Outgoing: 100 % of control

Incoming: Item CC(C)(C)N1CC(C(O)c2ccccc2)C1c1ccccc1 (centres undefined) with L1210 leukemia ip in BDF1 mice, survival T/C - T/C?
Outgoing: 95 % of control

Incoming: Item CCCCCCCC(=O)CCC with L1210 leukemia ip in BDF1 mice, survival T/C - T/C?
Outgoing: 89 % of control

Incoming: Item COc1ccc(C(=O)N=C(c2ccccc2)c2ccccc2)cc1 with L1210 leukemia ip in BDF1 mice, survival T/C - T/C?
Outgoing: 97 % of control

Further cases:
Incoming: Item CCOC(=O)COc1ccc([N+](=O)[O-])cc1 with L1210 leukemia ip in BDF1 mice, survival T/C - T/C?
Outgoing: 100 % of control

Incoming: Item O=C(CBr)NCC(S)c1ccc(Cl)cc1 (centres undefined) with L1210 leukemia ip in BDF1 mice, survival T/C - T/C?
Outgoing: 88 % of control

Incoming: Item CN(C)CCCN=C=NC1CCCCC1 with L1210 leukemia ip in BDF1 mice, survival T/C - T/C?
Outgoing: 95 % of control

Incoming: Item O=C(Nc1ccccc1C(=O)c1ccccn1)c1ccccc1 with L1210 leukemia ip in BDF1 mice, survival T/C - T/C?
Outgoing: 98 % of control

----------
# System: L1210 leukemia ip in BDF1 mice, survival T/C
# procedure text: NCI In Vivo Anticancer Drug Screen. Data for tumor model L1210 Leukemia (intraperitoneal) in B6D2F1 (BDF1) mice
# stated conditions: endpoint: mean survival time; dose: 100.0 mg/kg/injection; schedule: Q01DX009 (ip); vehicle: saline with Tween-80; higher = longer survival
Toxic doses and inconclusive results are not listed.
Measured T/C, listed per entry.

See these solved cases before continuing.
Incoming: What T/C value was documented for this molecule, O=C(Nc1ncccn1)c1ccc(Cl)cc1Cl ?
Outgoing: 102 % of control

Incoming: What T/C value was documented for this molecule, O=[N+]([O-])c1ccc(Sc2cccs2)c([N+](=O)[O-])c1 ?
Outgoing: 97 % of control

Incoming: What T/C value was documented for this molecule, CCCCC(CC)COC(C)=O (stereo unspecified) ?
Outgoing: 94 % of control

Further cases:
Incoming: What T/C value was documented for this molecule, COc1ccc(C(=O)N=C(c2ccccc2)c2ccccc2)cc1 ?
Outgoing: 95 % of control

Incoming: What T/C value was documented for this molecule, OC1CCOC1 (stereo unspecified) ?
Outgoing: 98 % of control

Incoming: What T/C value was documented for this molecule, CC(=O)c1cccc(NC(=S)NC(=O)/C=C/c2ccccc2)c1 ?
Outgoing: 94 % of control

Incoming: What T/C value was documented for this molecule, CC(C)(C)CC(C)(C)NS(=O)(=O)NC(C)(C)CC(C)(C)C ?
Outgoing: 103 % of control

Incoming: What T/C value was documented for this molecule, C=CCOC(=O)CCCCC(=O)OCC=C ?
Outgoing: 94 % of control

----------
# System: L1210 leukemia ip in BDF1 mice, survival T/C
# procedure text: NCI In Vivo Anticancer Drug Screen. Data for tumor model L1210 Leukemia (intraperitoneal) in B6D2F1 (BDF1) mice
# stated conditions: endpoint: mean survival time; dose: 100.0 mg/kg/injection; schedule: Q01DX009 (ip); vehicle: saline with Tween-80; higher = longer survival
Toxic doses and inconclusive results are not listed.
assay metric: T/C

See these solved cases before continuing.
Incoming: What T/C value was documented for this compound, CCOC(=O)CNCC(O)C(Cl)(Cl)Cl (stereo not drawn) ?
Outgoing: 92 % of control

Incoming: What T/C value was documented for this compound, CCC(O)(CC(=O)O)c1ccccc1 (stereo not drawn) ?
Outgoing: 91 % of control

Shifting focus to the compound that follows.
Incoming: What T/C value was documented for this compound, Brc1cscc1Cc1ccccc1 ?
Outgoing: 95 % of control
